ASSAY_SYSTEM: Rat α4β2 (Rattus norvegicus, UniProt P09483+P12390)
Construct: Preparation of membranes from rat tissues; Rat cortices were obtained from Analytical Biological Services; tissue Analytical Biological Services, Incorporated (ABS, Wilmington, Del.); host or cells: rat cortex membranes (female Sprague-Dawley)
MEASUREMENT_NOTES: Competition binding to rat α4β2 receptors in membrane preparations
pKi: −log10 of the molar value.
Listed here are compounds together with their documented pKi.

MOLECULAR_STRING: N#Cc1ncc(N2CC3CNCC(C2)O3)cc1OC(F)F
pKi: 9.92
--
MOLECULAR_STRING: c1cc2cc(N3CC4CNCC(C3)O4)cnc2o1
pKi: 7.64
--
MOLECULAR_STRING: Clc1ncc(N2CC3CNCC(C2)O3)cc1C1CC1
pKi: 7.85
--
MOLECULAR_STRING: c1ncc(N2CC3CNCC(C2)O3)cn1
pKi: 8.10
--
MOLECULAR_STRING: Cc1cncc(N2CC3CNCC(C2)O3)c1
pKi: 9.30
--
MOLECULAR_STRING: Brc1cncc(N2CC3CNCC(C2)O3)c1
pKi: 8.57
--
MOLECULAR_STRING: Fc1ccc(N2CC3CNCC(C2)O3)cn1
pKi: 7.80
--
MOLECULAR_STRING: CC(C)Oc1cncc(N2CC3CNCC(C2)O3)c1
pKi: 8.89
--
MOLECULAR_STRING: c1ncc(N2CC3CNCC(C2)O3)cc1OCC1CC1
pKi: 8.54
--
MOLECULAR_STRING: FC(F)(F)c1cncc(N2CC3CNCC(C2)O3)c1
pKi: 8.01
--
MOLECULAR_STRING: Clc1ccc(Oc2cncc(N3CC4CNCC(C3)O4)c2)cc1Cl
pKi: 7.96
--
MOLECULAR_STRING: FCCOc1cc(N2CC3CNCC(C2)O3)cnc1Cl
pKi: 9.39
--
MOLECULAR_STRING: N#Cc1cncc(N2CC3CNCC(C2)O3)c1
pKi: 7.96
